Values compiled from paper PMC9919699.

System: α-amylase
Assay: α-amylase enzyme inhibition assay (starch, dinitro-salicylic acid, 540 nm)
Type: biochemical
Conditions: 1000 µg/mL, Table 9 (MZn series)
Mark F for % Inhibition values under 60%, and T for everything at or above.

## Input State whether the measured % Inhibition reaches 60%, counting equality as reaching it, for COc1cc(C=NC(=N)NC(=N)N(C)C)ccc1O.COc1cc(C=NC(=N)NC(=N)N(C)C)ccc1O.O.O.O.O.O.O=S(=O)([O-])[O-].[Zn+2]
## Output T

## Input And the next one, CN(C)C(=N)NC(=N)N=Cc1ccccc1O.CN(C)C(=N)NC(=N)N=Cc1ccccc1O.O.O.O.O.O.O=S(=O)([O-])[O-].[Zn+2] ?
## Output T

## Input And the next one, CN(C)C(=N)NC(=N)N=C(c1ccccc1)c1ccccc1.CN(C)C(=N)NC(=N)N=C(c1ccccc1)c1ccccc1.O.O.O.O.O.O=S(=O)([O-])[O-].[Zn+2] ?
## Output T

## Input And the next one, CC(=NC(=N)NC(=N)N(C)C)c1ccccc1.CC(=NC(=N)NC(=N)N(C)C)c1ccccc1.O.O.O.O.O.O=S(=O)([O-])[O-].[Zn+2] ?
## Output F

## Input And the next one, C=NC(=N)NC(=N)N(C)C.C=NC(=N)NC(=N)N(C)C.O.O.O.O.O.O=S(=O)([O-])[O-].[Zn+2] ?
## Output F
